Reference source for all entries: paper PMC10779086

# tested.target: UniProt P02766
# run.description: Isothermal titration calorimetry (ITC), one-binding-site model
# Set-up: made in house; host or cells: E. coli BL21
# run.parameters: single-binding-site model, 25 °C
Listing: n (stoichiometry of binding, ligand:TTR tetramer) of selected molecules
Lab note: write the figure by itself, no unit.

Worked cases, n (stoichiometry of binding, ligand:TTR tetramer) given:
COc1cc(C(=O)c2ccc(C)cc2)cc([N+](=O)[O-])c1O; 1.9
O=C(O)c1ccc2nc(-c3cc(Cl)cc(Cl)c3)oc2c1 [tafamidis, reference compound]; 2.4
COc1cc(C(=O)c2ccc(C)cc2C)cc([N+](=O)[O-])c1O; 2.1

GET /values?readout=n (stoichiometry of binding, ligand:TTR tetramer)&item= COc1cc(C(=O)c2cc(C)cc(C)c2)cc([N+](=O)[O-])c1O 1.8

GET /values?readout=n (stoichiometry of binding, ligand:TTR tetramer)&item= Cc1ccc(C(=O)c2cc(O)c(O)c([N+](=O)[O-])c2)cc1 2.0

* * *

# tested.target: TTR (Homo sapiens, UniProt P02766)
# run.description: Isothermal titration calorimetry (ITC), one-binding-site model
# run.parameters: single-binding-site model, 25 °C, pH 7.4, 5% DMSO
# Method: At an absorbance value of 600 nm around 0.3, the temperature was shifted to 30 °C. Data were fitted using the “one-binding-site model” of the Malvern version of ORIGIN v.7. The heat of binding (ΔH), the stoichiometry (n), entropy (ΔS) and the dissociation constant (Kd) were then calculated from plots of the heat evolved per mole of ligand injected versus the molar ratio of ligand to protein using the software provided by the vendor (Table 3). Sample preparation is detailed below. […]
Listing: pKd of selected compounds
Scale: pKd equals -log10([C]), with [C] in mol/L.

COc1cc(C(=O)c2ccc(C)cc2)cc([N+](=O)[O-])c1O [3-OMT, 3-O-methyltolcapone]; 7.48
COc1cc(C(=O)c2ccc(C)cc2C)cc([N+](=O)[O-])c1O [Compound 2]; 7.60

Switching to the query record.
Tell me reported pKd for COc1cc(C(=O)c2cc(C)cc(C)c2)cc([N+](=O)[O-])c1O [Compound 1] , tested with TTR (Homo sapiens, UniProt P02766). 7.15

* * *

# run.description: Caco-2 intestinal permeability
# Assay type: in vitro ADME, human
# run.parameters: human, Caco-2, pH 7.4, B→A
observation.type: recovery at 60 min, 10 µM (%)
Enter your answer as a number in %; do not include the unit.

COc1cc(C(=O)c2ccc(C)cc2)cc([N+](=O)[O-])c1O; 83
COc1cc(C(=O)c2ccc(C)cc2C)cc([N+](=O)[O-])c1O; 80

GET /values?readout=recovery at 60 min, 10 µM&item= Cc1ccc(C(=O)c2cc(O)c(O)c([N+](=O)[O-])c2)cc1 70

GET /values?readout=recovery at 60 min, 10 µM&item= C[C@H]1O[C@@H](O[C@H]2[C@@H](O)C[C@H](O[C@H]3[C@@H](O)C[C@H](O[C@H]4CC[C@@]5(C)[C@H](CC[C@@H]6[C@@H]5C[C@@H](O)[C@]5(C)[C@@H](C7=CC(=O)OC7)CC[C@]65O)C4)O[C@@H]3C)O[C@@H]2C)C[C@H](O)[C@@H]1O [Digoxin, reference compound] 71

GET /values?readout=recovery at 60 min, 10 µM&item= COc1cc(C(=O)c2cc(C)cc(C)c2)cc([N+](=O)[O-])c1O 77
